Entry source: the supplement of paper PMC8728848

- EXPERIMENTAL SYSTEM: GlcNAc(a1-4)Gal(b1-4)GlcNAc(b1-3)Gal(b1-4)[Fuc(a1-3)]GlcNAc(b1-3)Gal(b1-4)[Fuc(a1-3)]GlcNAc
- ASSAY INFO: glycan array binding signal (z-score within array); higher = stronger binding
- ASSAY CONTEXT: glycan notation: IUPAC condensed, linker removed
The entries come from a sample that favours the strongest signals as a whole.
List of glycan array binding signal (z-score) values.

# BINDER, glycan array binding signal (z-score)
records = [
    ("rPitB (Streptococcus pneumoniae), A0A0I7U739 (protein) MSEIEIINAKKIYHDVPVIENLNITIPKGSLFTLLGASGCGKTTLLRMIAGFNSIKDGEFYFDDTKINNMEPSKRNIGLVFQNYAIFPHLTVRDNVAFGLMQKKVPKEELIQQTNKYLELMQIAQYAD", 3.89),
    ("Epa3to1 (Candida glabrata) (protein) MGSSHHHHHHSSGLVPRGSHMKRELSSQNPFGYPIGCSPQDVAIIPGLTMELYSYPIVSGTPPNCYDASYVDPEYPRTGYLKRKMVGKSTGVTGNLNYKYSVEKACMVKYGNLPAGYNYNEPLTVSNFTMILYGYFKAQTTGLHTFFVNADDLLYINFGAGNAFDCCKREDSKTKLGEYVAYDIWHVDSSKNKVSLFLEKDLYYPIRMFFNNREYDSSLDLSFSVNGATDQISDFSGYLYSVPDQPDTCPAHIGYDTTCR", -0.037),
]
